// provenance: paper PMC3972818

assay: in vitro; format: in vitro ADME; settings: rat, microsomes
metricName: remaining at 1.5 h (%)
Supply the numeric figure in %, leaving out any unit text.

Please fill in: remaining at 1.5 h reported for CN[C@@H]1[C@H](O)[C@H](NC)[C@H]2O[C@@]3(O)C(=O)C[C@@H](C)O[C@H]3O[C@@H]2[C@H]1O [Spectinomycin, spectinomycin] = 80.4
